target: shed MICB005 polypeptide (human) (UniProt Q29980); assay: capture ELISA (anti-hFc / antibody / shed antigen / biotin-6D4)
experimental.endpoint: EC50 (µg/mL)
Numbers only; they are read as µg/mL.

6E1.1.12 (antibody, human IgG1, kappa, V domains shown) VH: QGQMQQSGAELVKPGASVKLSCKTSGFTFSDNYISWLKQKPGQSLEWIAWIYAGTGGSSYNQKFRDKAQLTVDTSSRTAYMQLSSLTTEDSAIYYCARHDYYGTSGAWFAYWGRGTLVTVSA VL: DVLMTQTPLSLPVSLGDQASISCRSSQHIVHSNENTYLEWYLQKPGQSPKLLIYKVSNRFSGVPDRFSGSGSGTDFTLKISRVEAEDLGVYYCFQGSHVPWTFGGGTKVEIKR: 0.41
1D5 (antibody, human IgG1, kappa, V domains shown) VH: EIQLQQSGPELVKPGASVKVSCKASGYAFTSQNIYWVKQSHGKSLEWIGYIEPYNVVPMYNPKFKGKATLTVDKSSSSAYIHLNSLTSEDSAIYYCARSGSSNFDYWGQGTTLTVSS VL: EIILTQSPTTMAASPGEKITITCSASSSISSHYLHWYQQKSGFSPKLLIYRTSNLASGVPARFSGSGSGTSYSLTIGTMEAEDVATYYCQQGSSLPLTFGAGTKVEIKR: 0.02
#36 (antibody, V domains shown) VH: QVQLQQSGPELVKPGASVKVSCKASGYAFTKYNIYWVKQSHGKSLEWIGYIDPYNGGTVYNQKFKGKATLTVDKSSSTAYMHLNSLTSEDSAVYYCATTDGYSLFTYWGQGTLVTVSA VL: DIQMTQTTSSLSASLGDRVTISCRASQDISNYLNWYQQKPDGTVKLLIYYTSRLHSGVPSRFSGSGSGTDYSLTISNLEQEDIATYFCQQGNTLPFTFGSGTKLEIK: 0.84

Proceed to the following item.
Request: Indicate the recorded EC50 value for this binder: #38 (antibody, V domains shown) VH: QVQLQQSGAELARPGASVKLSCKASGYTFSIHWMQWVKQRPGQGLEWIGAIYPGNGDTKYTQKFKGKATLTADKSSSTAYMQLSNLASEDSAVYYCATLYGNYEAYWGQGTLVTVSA VL: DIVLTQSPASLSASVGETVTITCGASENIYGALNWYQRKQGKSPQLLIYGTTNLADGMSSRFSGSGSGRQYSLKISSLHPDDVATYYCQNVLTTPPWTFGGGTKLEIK
Result: 0.02
